As an illustration, consider measured pKi for substances on Galanin receptor type 2 (Rattus norvegicus, UniProt O08726).
Sequence (O08726 whole entry): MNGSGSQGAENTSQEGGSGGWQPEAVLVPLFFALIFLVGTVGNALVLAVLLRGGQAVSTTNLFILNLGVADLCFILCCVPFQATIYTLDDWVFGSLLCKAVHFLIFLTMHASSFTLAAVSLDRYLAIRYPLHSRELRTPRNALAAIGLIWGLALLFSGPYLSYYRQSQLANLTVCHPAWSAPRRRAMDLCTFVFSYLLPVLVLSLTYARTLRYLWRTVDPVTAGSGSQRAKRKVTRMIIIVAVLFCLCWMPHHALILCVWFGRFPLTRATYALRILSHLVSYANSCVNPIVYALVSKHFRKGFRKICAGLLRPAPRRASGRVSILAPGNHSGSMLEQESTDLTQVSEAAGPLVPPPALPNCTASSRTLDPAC
pKi: −log10 of the molar value.
measuredParameter: pKi

> print(dat)
                                  substance  measuredparameter  reportedresult
1  H-LPGLPSAASSEDAGQS-NH2 [CAS_125455-59-6]                pKi            6.00
2          H-GWTLNSAGYLLGPPPALALA-NH2 [M40]                pKi            8.54

Provenance of the data: BindingDB's records for doi:10.1074/jbc.272.51.31949
